- tested on: GPR37 (Homo sapiens)
- Sequence (O15354 27-613): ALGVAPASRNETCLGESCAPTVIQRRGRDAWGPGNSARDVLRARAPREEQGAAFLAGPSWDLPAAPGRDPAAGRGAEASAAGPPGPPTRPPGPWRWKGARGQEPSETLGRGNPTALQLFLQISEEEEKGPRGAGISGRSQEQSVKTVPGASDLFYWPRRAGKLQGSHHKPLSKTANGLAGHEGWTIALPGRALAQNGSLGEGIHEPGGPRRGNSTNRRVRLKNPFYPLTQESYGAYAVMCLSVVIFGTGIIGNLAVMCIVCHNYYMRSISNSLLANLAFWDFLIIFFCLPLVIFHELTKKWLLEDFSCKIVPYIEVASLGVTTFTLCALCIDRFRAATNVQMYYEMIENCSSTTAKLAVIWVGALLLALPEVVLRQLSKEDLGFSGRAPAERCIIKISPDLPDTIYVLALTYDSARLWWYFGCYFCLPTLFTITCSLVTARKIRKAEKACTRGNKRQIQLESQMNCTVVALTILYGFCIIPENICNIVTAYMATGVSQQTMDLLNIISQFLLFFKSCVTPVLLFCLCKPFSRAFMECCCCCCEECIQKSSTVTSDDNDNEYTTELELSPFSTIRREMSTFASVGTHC
- test name: Ca2+ imaging in HEK293T cells expressing human GPR37 versus mock; lipid overlay dot blot with GPR37-HEK293T lysate
experimental endpoint: EC50 (nM)
Answer format: numeric, nM implied, no suffix.

QUERY: Look up EC50 for this compound: CC/C=C\C[C@H](O)/C=C/C=C\C=C\[C@@H](O)C/C=C\C/C=C\CCC(=O)O
RESULT: 23.5

Measured values drawn from paper PMC12807480 for this set.
